Values were extracted from patent CN117946265A.

- experimental_target: T1, 人CX3CL1胞外区蛋白 CX3CL1(Q25-Q341)-6xHis (human, UniProt P78423 25-341)
- T1 sequence: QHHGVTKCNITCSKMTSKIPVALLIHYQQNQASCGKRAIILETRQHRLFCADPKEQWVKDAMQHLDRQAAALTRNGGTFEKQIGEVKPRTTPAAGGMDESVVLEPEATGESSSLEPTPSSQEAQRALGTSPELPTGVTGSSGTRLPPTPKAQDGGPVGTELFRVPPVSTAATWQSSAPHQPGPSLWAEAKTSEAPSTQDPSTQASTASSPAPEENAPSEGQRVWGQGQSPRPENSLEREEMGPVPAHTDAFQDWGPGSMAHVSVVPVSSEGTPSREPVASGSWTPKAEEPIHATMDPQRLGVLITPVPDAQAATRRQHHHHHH
- method_notes: cell-based or functional assay
experimental_readout: 抑制细胞迁移活性 IC50 (nM)
Numbers only, in nM.

Query: Given C032NA (antibody, human IgG2, kappa, V domains shown, Chimeric IgG2 mutant of C032 removing the NG hot spot of HCDR2 (NG to NA)) VH: EVQLQQSGPELVKPGASVKISCKASGYTFTDYYMNWVKQSHGKSLEWIGDINPNNAGTSYNQKFKGKATLTVDKSSSTAYMELRSLTSEDSAVYYCASSGNSYVDYWGQGTTLTVSS VL: DIVMTQSHKFMSTSVGDRVSITCKASQDVSTAVAWYQQKPGQSPKLLIYWASTRHTGVPDRFTGSGSGTDYTLTISSVQAEDLALYYCQQHYSSPYTFGGGTKLEIKR , respond with its 抑制细胞迁移活性 IC50.
Response: 4
